The reported measurements were obtained from paper PMC4971072.

Catalogue of QT (ECG) values
- Tested on: normal ECG in rats
- experimental protocol: The effect on normal electrocardiogram in rats
- Format: in vivo, rat
- test settings: anesthetized rats, i.p. at ED84; 10 min
Reply numerically in ms, unit not repeated.

Study these solved cases before continuing.
>>> result("COc1ccccc1N1CCN(CCCOc2cc(C)cc(C)c2C)CC1 [HBK-19]")
77.5
>>> result("COc1ccccc1N1CCN(CCCOc2cc(C)ccc2Cl)CC1 [HBK-16]")
51.2
>>> result("COc1ccccc1N1CCN(CCCOc2c(C)cc(C)cc2C)CC1 [HBK-18]")
77.7
>>> result("COc1ccccc1N1CCN(CCOCCOc2c(C)cccc2Cl)CC1.Cl [HBK-15]")
87.2

The record that follows has no QT (ECG) shown yet.
Item: COc1ccccc1N1CCN(CCOCCOc2c(C)cccc2C)CC1.Cl [HBK-14] | QT (ECG): 88.7
